- target.desc: Histone deacetylase 8 (Homo sapiens)
- Sequence (Q9BY41 whole entry): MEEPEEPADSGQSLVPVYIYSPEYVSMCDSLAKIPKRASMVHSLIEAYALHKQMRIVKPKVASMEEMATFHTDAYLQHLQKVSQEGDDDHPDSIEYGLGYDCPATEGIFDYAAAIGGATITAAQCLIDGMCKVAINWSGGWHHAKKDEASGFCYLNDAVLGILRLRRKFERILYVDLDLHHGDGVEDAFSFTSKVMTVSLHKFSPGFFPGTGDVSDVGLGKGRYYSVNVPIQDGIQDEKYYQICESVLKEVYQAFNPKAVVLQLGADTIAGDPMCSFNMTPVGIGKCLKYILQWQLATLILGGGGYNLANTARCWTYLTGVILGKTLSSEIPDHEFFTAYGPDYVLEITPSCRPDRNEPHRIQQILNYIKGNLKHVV
- protocol.text: Inhibition of recombinant HDAC8 (unknown origin) using Fluor-de-Lys-HDAC8 as substrate by fluorescence assay
Kindly supply the reported IC50 values for the records listed here.
Expressed in nM, but write only the number.

IC50 in this record for Cc1c(O)c(O)c2c(c1C=O)[C@@H]1O[C@H](O2)c2c(C)c(O)c(O)c(O)c2C1=O (racemic) : 1600

IC50 in this record for Cc1c(O)c(O)c(O)c(C=O)c1-c1cc2c(C=O)c(C)c(O)c(O)c2o1 : 2100

----------
- target.desc: Protein deacetylase HDAC6 (Homo sapiens)
- Sequence (Q9UBN7 whole entry): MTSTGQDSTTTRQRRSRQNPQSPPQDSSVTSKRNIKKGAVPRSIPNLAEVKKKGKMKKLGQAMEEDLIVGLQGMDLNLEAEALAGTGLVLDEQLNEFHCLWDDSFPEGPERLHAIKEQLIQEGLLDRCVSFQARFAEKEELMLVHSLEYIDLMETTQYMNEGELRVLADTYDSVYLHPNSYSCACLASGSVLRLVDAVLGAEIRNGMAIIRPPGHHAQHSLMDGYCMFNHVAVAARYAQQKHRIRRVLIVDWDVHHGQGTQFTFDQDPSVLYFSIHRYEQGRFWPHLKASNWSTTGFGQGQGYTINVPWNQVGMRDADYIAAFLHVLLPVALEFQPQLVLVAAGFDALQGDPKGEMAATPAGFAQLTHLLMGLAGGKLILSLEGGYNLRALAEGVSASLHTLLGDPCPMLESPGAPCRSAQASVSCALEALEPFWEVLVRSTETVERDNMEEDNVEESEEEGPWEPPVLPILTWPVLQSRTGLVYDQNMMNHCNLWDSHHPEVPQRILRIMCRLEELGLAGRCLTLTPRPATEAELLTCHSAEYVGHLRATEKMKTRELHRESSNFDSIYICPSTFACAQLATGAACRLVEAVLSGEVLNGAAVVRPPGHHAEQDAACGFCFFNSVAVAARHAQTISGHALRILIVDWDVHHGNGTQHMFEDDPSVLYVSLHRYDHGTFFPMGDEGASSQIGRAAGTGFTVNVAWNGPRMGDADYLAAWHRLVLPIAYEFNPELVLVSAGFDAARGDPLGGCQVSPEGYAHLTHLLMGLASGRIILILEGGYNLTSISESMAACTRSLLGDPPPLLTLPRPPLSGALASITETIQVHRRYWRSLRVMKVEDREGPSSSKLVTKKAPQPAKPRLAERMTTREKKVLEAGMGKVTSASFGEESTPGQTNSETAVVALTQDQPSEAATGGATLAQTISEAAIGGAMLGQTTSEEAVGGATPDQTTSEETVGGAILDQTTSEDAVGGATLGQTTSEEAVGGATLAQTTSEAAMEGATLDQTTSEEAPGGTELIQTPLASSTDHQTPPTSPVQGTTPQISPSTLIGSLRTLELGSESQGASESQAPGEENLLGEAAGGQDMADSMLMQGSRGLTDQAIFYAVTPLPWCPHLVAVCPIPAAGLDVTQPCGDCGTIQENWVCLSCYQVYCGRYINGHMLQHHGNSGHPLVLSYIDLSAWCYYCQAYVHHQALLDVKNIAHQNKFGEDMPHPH
- protocol.text: Inhibition of recombinant HDAC6 (unknown origin) using Fluor-de-Lys-SIRT1 as substrate by fluorescence assay
recorded.endpoint: pIC50
By convention, pIC50 is the negative base-10 log of a molar concentration.

pIC50 in this record for Cc1c(O)c(O)c2c(c1C=O)[C@@H]1O[C@H](O2)c2c(C)c(O)c(O)c(O)c2C1=O (racemic) : 5.34

pIC50 in this record for Cc1c(O)c(O)c(O)c(C=O)c1-c1cc2c(C=O)c(C)c(O)c(O)c2o1 : 5.19

----------
Aurora kinase B (Homo sapiens, UniProt Q96GD4): recorded pIC50 for assorted compounds
Sequence (Q96GD4 whole entry): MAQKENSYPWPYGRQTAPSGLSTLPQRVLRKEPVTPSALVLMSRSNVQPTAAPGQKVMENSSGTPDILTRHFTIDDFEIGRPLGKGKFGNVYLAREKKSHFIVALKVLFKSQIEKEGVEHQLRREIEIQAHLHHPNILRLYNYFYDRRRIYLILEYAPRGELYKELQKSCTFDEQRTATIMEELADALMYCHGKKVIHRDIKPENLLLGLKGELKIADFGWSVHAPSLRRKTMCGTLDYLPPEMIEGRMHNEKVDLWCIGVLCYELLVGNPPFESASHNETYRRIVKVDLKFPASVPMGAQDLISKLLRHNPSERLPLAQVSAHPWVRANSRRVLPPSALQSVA
By convention, pIC50 is the negative base-10 log of a molar concentration.

pIC50 in this record for O=c1c(O)c(-c2ccc(O)c(O)c2)oc2cc(O)cc(O)c12 : 6.04

pIC50 in this record for Cc1c(O)c(O)c(O)c2c1COC2=O : 5.06

pIC50 in this record for COCc1c(C)c(O)c(O)c(O)c1C=O : 4.69

pIC50 in this record for COC1OC(=O)c2c(O)c(O)c(O)c(C)c21 (racemic) : 4.65

----------
- target.desc: RAC-alpha serine/threonine-protein kinase (Homo sapiens, UniProt P31749)
- Sequence (P31749 whole entry): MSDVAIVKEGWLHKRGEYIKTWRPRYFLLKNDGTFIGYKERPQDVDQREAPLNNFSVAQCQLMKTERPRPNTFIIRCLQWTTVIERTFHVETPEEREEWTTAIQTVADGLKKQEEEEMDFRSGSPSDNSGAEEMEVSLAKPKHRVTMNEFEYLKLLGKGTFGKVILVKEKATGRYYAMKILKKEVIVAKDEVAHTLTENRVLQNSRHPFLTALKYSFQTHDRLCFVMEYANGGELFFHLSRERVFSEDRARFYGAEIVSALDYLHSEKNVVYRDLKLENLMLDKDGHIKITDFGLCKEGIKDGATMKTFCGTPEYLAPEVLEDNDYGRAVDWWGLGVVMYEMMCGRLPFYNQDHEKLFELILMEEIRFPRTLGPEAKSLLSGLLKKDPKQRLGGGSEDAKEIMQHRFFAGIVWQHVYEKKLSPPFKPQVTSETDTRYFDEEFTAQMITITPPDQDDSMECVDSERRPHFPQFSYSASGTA
recorded.endpoint: pIC50
By convention, pIC50 is the negative base-10 log of a molar concentration.

Form field, pIC50 with RAC-alpha serine/threonine-protein kinase (Homo sapiens, UniProt P31749), item O=c1c(O)c(-c2ccc(O)c(O)c2)oc2cc(O)cc(O)c12 : 5.27

Form field, pIC50 with RAC-alpha serine/threonine-protein kinase (Homo sapiens, UniProt P31749), item Cc1c(O)c(O)c2c(c1C=O)[C@@H]1O[C@H](O2)c2c(C)c(O)c(O)c(O)c2C1=O (racemic) : 5.67

Form field, pIC50 with RAC-alpha serine/threonine-protein kinase (Homo sapiens, UniProt P31749), item Cc1c(O)c(O)c(O)c(C=O)c1-c1cc2c(C=O)c(C)c(O)c(O)c2o1 : 5.39
